TEST DETAILS: Plasma drug levels one hour post dose in rat (PO dose)
Assay type: ADME, organism-based
ASSAY CONDITIONS: read-out: Plasma level
For each entry below, report its log10(concentration at 1 h) value.
Values below are the log10 of the recorded concentration at 1 h, with µM as the unit.

| MOLECULE | PARAMETER | NUMERIC VALUE |
| --- | --- | --- |
| C=CCNC(=O)N(O)C(C)c1cc2ccccc2s1 (configuration not stated) | log10(concentration at 1 h) | 1.08 |

Record log10(concentration at 1 h) for all entries; do not skip any.
1. CC(C1CC1c1cccc(Oc2ccccc2)c1)N(O)C(N)=O (configuration not stated)
2. CCOCc1ccc(C(C)N(O)C(N)=O)o1 (configuration not stated)

[1.00, 2.21]

Source of measurements: ChEMBL document CHEMBL1130069
